- Read-out: CD40, CD40 (gene 958)
- method: BSK_LPS_CD40: BioMAP Diversity Plus: LPS Assay for CD40 Biomarker Activity (AID 2283076)
- protocolConditions: primary human HUVEC with PBMC; actives raise or lower the signal
- Experimental: BSK_LPS is a cell-based, multiplexed-readout assay that uses umbilical vein endothelium and peripheral blood mononuclear cells, a human vascular primary cell co-culture, with measurements taken at 24 hours after chemical dosing in a 96-well plate.BSK_LPS_CD40 is an assay component measured in the BSK_LPS assay. It measures CD40 antibody related to regulation of gene expression using ELISA technology.Data from the assay component BSK_LPS_CD40 was analyzed into 1 assay endpoint. […]
Calls of active or inactive are those of the source. Rule for the calls: active = hit-call score of the fitted dose curve at least 0.9, where 1 is the maximum; inactive = score below 0.9.
Classes used: active, inactive

molecule: C=C(C)C(=O)OCC(F)(F)C(F)(F)C(F)(F)F
groupLabel: inactive

molecule: C=CC(=O)OCC(F)(F)C(F)(F)C(F)(F)C(F)(F)C(F)(F)C(F)(F)C(F)(F)F
groupLabel: inactive

molecule: FC(F)(Br)C(F)(F)C(F)(F)C(F)(F)C(F)(F)C(F)(F)Br
groupLabel: inactive

molecule: COC(=O)CCC(F)(F)C(F)(F)C(F)(F)C(F)(F)F
groupLabel: inactive

molecule: O=C(O)C(F)(F)C(F)(F)C(F)F
groupLabel: inactive

molecule: Nc1ccc([N+](=O)[O-])cc1O
groupLabel: inactive

molecule: O=C(O)C(F)(F)C(F)(F)C(F)(F)C(F)(F)C(F)(F)C(F)(F)C(F)(F)C(F)(F)Cl
groupLabel: inactive

molecule: CCCCCCCCCCCCCCCC[N+](C)(C)Cc1ccccc1
groupLabel: active

molecule: O=C(O)C(F)(F)C(F)(F)C(F)(F)F
groupLabel: inactive

molecule: CCCCCCC(C)OC(=O)CCCCC(=O)OC(C)CCCCCC (stereo unspecified)
groupLabel: inactive

molecule: FC(F)(F)C(F)(F)C(F)(F)C(F)(F)C(F)(F)C(F)(F)C(F)(F)C(F)(F)CCS
groupLabel: inactive

Source listed as PubChem BioAssay (EPA / NIEHS).
